System: K562
Test: NCI tumour cell line growth inhibition, 48 h
The source made the active and inactive calls. No stated cut-off is given here; in the data, active = GI50 up to about 1.1 µM and inactive = higher.
Classes to choose from: active, inactive

Solved cases below.
molecule	assigned-label
CC1(C)N[PH]2(Nc3ccccc3O2)OC1=O	inactive
CCOC(=O)/C=C(/C(=O)OCC)n1ccc(=O)n(Cc2cnnn2COCCOC(C)=O)c1=O	inactive
CCCC(=O)OCC1OC(n2cc(F)c(=O)[nH]c2=O)C(F)C1O (configuration not stated)	inactive
C[N+](C)=c1[nH]c2ccccc2[nH]1	inactive
CC1(C)CCC2=C(O1)/C(=N\Nc1ccc(S(N)(=O)=O)cc1)c1ccccc1C2=O	inactive

### Prompt So what was the verdict on COC(=O)C[C@](O)(CCC(C)(C)O)C(=O)O[C@@H]1C(OC)=C[C@]23CCCN2CCc2cc4c(cc2[C@H]13)OCO4 [HARRINGTONINE] in this test?
### Response active

### Prompt So what was the verdict on NC(=O)c1nnsc1NC=O in this test?
### Response inactive

### Prompt So what was the verdict on COc1ccccc1/C=C\c1cnnc2ccccc12 in this test?
### Response inactive

### Prompt So what was the verdict on O=c1[nH]c2c(O)cccc2c2cc3c(c(O)c12)OCO3 [NARCIPRIMINE] in this test?
### Response inactive

### Prompt So what was the verdict on C=C(C)C#CC(O)(C(=O)OC1CCN(C)CC1)C(C)C (configuration not stated) in this test?
### Response inactive

### Prompt So what was the verdict on COP1(=O)Oc2ccccc2C(=O)C(C(F)(F)F)(C(F)(F)F)O1 (configuration not stated) in this test?
### Response inactive

### Prompt So what was the verdict on CSc1c(C#N)c(O)nc(N)c1C(=O)Nc1ccc(Cl)cc1 in this test?
### Response inactive

====

Test system: HCC 2998
Assay: NCI tumour cell line growth inhibition, 48 h
The source made the active and inactive calls. No stated cut-off is given here; in the data, active = GI50 up to about 1.1 µM and inactive = higher.
Classes to choose from: 1 for active, 0 for inactive

Solved cases below.
molecule	assigned-label
CSc1c(C#N)c(O)nc(N)c1C(=O)Nc1ccc(Cl)cc1	0
O=C(NO)c1ccc(O)c(O)c1	0
NC(=O)C1=C(O)C[C@@H]2CC3Cc4cccc(O)c4C(=O)C3=C(O)[C@]2(O)C1=O (stereo not given in full)	0
Cc1cc(N(CCC#N)CCC#N)ccc1/C=C(\NC(=O)/C=C/c1ccccc1)C(=O)Nc1ccc(Cl)cc1	0

Pending molecule:
### Prompt So what was the verdict on N#Cc1ccc(C(O)C(F)(F)c2nc3ccccc3o2)cc1 (stereo not given) in this test?
### Response 0

====

Tested on: MOLT-4
Assay: NCI tumour cell line growth inhibition, 48 h
Active and inactive are the calls of the source. Cut-off read from the data, not from the text of the source: active = GI50 up to about 1.1 µM and inactive = higher.
experimental-endpoint: GI50

molecule	GI50
CC(=O)c1c(CO[N+](=O)[O-])[n+]([O-])c2ccccc2[n+]1[O-]	78.3 µM (inactive)

### Prompt Give the measured GI50 of CC(=O)N1N=C(c2c(O)ccc3ccccc23)CC1c1ccc(Cl)cc1 (configuration not stated) .
### Response 10.9 µM (inactive)

### Prompt Give the measured GI50 of CCOC(=O)C(C(=S)Nc1ccccc1)c1nn2c(=O)cc(C)nc2s1 (configuration not stated) .
### Response 25 µM (inactive)

### Prompt Give the measured GI50 of COC(=O)CC(C#N)(OP1(=O)OC(c2ccccc2)C(C)N1C)c1ccccc1 (configuration not stated) .
### Response 25.5 µM (inactive)

### Prompt Give the measured GI50 of O=c1c(-c2ccccc2)c(SCCN2CCCC2)n(-c2ccccc2)c(=S)n1-c1ccccc1 .
### Response > 100 µM (inactive)

### Prompt Give the measured GI50 of CN(C)c1n/c(=N/Cc2ccccn2)ss1 .
### Response 1.78 µM (inactive)

### Prompt Give the measured GI50 of CC(=NNC(=S)Nc1cccc(C)c1)c1cccc(C(C)=NNC(=S)Nc2cccc(C)c2)n1 .
### Response 15 µM (inactive)

### Prompt Give the measured GI50 of COP(=O)(OC)C(=O)N1N(c2ccc([N+](=O)[O-])cc2)C(=O)C(C)NC1(NNc1ccc([N+](=O)[O-])cc1)P(=O)(OC)OC (configuration not stated) .
### Response > 100 µM (inactive)

### Prompt Give the measured GI50 of Cc1cc(-c2nc3cc(F)ccc3s2)ccc1NC(=O)[C@@H](N)CCCCN .
### Response 1.3 µM (inactive)
